Consider compounds characterized by their pIC50 with GST-JAK3(811-1124) (Homo sapiens, UniProt P52333).
Sequence (P52333 811-1124): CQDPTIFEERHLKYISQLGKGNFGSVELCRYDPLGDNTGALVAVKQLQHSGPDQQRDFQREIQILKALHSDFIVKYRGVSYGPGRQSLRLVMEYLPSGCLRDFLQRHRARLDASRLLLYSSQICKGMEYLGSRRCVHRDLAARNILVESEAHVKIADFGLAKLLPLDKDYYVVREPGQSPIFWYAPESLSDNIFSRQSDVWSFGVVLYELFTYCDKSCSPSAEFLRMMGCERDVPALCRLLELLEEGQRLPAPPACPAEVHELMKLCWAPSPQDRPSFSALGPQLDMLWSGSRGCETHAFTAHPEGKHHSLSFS
pIC50: −log10 of the molar value.
Assay Metric: pIC50

COCCN1CCC(n2cc(-c3cnc4cccc(-c5cc(F)c(CN6CCOCC6)c(F)c5)c4n3)cn2)CC1 5.71
Cc1cc(-c2cnc3cccc(-c4cc(F)c(CN5CCOCC5)c(F)c4)c3n2)ccc1C(=O)N1CCOCC1 5.71
COc1cc(-c2cnc3cccc(-c4ccc(C(=O)N5CCOCC5)cc4F)c3n2)cc(OC)c1OC 5.36
CCN1CCN(C(=O)c2ccc(-c3cnc4cccc(-c5ccc(C(C)(C)N6CCOCC6)c(C)c5)c4n3)cc2C)CC1 5.34

(I) CCN1CCN(Cc2ccc(-c3cnc4cccc(-c5cc(F)c(CN6CCOCC6)c(F)c5)c4n3)cc2C)CC1
(II) CCOc1ccc(-c2cnc3cccc(-c4ccc(CC(=O)N5CCOCC5)cc4)c3n2)cc1OCC
Compare I and II and name the one whose reported pIC50 is smaller. Your answer should be the label of the entry you select.
I
(I: 5.31, II: 6.15)

(A) Cc1cc(-c2cnc3cccc(-c4ccc(C(=O)N5CCCC5)c(C)c4)c3n2)ccc1C(=O)N1CCCC1
(B) COc1cc(-c2cnc3cccc(-c4ccc(CN5CCS(=O)(=O)CC5)c(F)c4)c3n2)ccc1OCCCN1CCOCC1
(C) CCOc1ccc(-c2cnc3cccc(-c4ccc(CN5CCS(=O)(=O)CC5)c(C)c4)c3n2)cc1OCC
Arrange these compounds by their pIC50, starting with the largest number. Please list the labels according to the requested order.
B, C, A

(1) O=C(c1c(F)cc(-c2cccc3ncc(-c4cnn(C5CCNCC5)c4)nc23)cc1F)N1CCOCC1
(2) COCCOc1ccc(-c2cnc3cccc(-c4cc(F)c(CN5CCS(=O)(=O)CC5)c(F)c4)c3n2)cc1OC
Compare 1 and 2 and name the one whose reported pIC50 is smaller. Your answer should be the label of the entry you select.
1

----------
Entries annotated with measured IC50
- Tested On: GST-JAK2(808-1132) (Homo sapiens, UniProt O60674)
- Construct: GST-JAK2(808-1132); purchased Invitrogen (Carlsbad, USA) #4288
- Sequence (O60674 808-1132): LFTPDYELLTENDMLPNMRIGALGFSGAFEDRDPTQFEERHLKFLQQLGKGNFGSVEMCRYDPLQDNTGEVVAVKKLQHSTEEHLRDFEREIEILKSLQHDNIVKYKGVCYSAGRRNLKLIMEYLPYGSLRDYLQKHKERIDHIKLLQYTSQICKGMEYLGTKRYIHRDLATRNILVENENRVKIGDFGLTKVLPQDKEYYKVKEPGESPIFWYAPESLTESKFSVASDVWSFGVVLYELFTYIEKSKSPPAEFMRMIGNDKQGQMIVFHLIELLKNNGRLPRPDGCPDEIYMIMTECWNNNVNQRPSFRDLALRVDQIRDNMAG
- Procedure Summary: EPK JAK-family kinases profiling assay (Caliper mobility shift), JAK2
- Format: biochemical
- Experimental Parameters: ATP 20 μM, 1.8 nM kinase

// solved cases for IC50 follow
Fc1cc(-c2cccc3ncc(-c4cnn(C5CCN(C6CC6)CC5)c4)nc23)cc(F)c1CN1CCOCC1 < 3 nM
O=S1(=O)CCN(Cc2c(F)cc(-c3cccc4ncc(-c5cnn(C6CCNCC6)c5)nc34)cc2F)CC1 < 3 nM

Answer with IC50 of Cc1cc(-c2cnc3cccc(-c4cc(F)c(CN5CCS(=O)(=O)CC5)c(F)c4)c3n2)ccc1C(=O)N(C)CCN(C)C measured for GST-JAK2(808-1132) (Homo sapiens, UniProt O60674).
< 3 nM

----------
- Tested On: GST-JAK2(808-1132) (Homo sapiens)
- Construct: GST-JAK2(808-1132); purchased Invitrogen (Carlsbad, USA) #4288
- Procedure Summary: EPK JAK-family kinases profiling assay (Caliper mobility shift), JAK2
- Type: biochemical
- Experimental Parameters: ATP 20 μM, 1.8 nM kinase
pIC50: −log10 of the molar value.
Assay Metric: pIC50

COc1ccc(-c2cnc3cccc(-c4cc(F)c(CN5CCOCC5)c(F)c4)c3n2)cc1N1CCN(C)CC1 8.24

(A) CCS(=O)(=O)c1ccc(-c2cccc3ncc(-c4cc(OC)c(OC)c(OC)c4)nc23)cc1
(B) Cc1cc(-c2cnc3cccc(-c4cc(F)c(CN5CCS(=O)(=O)CC5)c(F)c4)c3n2)ccc1C(=O)N1CCOCC1
(C) CCOc1ccc(-c2cnc3cccc(-c4ccc(CC(=O)N5CCOCC5)cc4)c3n2)cc1OCC
Arrange these compounds by their pIC50, starting with the largest number. Please list the labels according to the requested order.
B, C, A

----------
- Tested On: GST-JAK2(808-1132) (Homo sapiens)
- Construct: GST-JAK2(808-1132); purchased Invitrogen (Carlsbad, USA) #4288
- Procedure Summary: EPK JAK-family kinases profiling assay (Caliper mobility shift), JAK2
- Assay type: biochemical
- Experimental Parameters: ATP 20 μM, 1.8 nM kinase
pIC50: −log10 of the molar value.
Assay Metric: pIC50

// solved cases for pIC50 follow
Cc1cc(-c2cccc3ncc(-c4cnn(C5CCNCC5)c4)nc23)ccc1C(=O)N1CCOCC1 6.89
Cc1cc(-c2cnc3cccc(-c4cc(F)c(CN5CCOCC5)c(F)c4)c3n2)ccc1CN1CCOCC1 8.09
CN1CCN(c2ccc(-c3cnc4cccc(-c5cc(F)c(CN6CCS(=O)(=O)CC6)c(F)c5)c4n3)cn2)CC1 7.61

(I) Cc1cc(-c2cnc3cccc(-c4ccc(CN5CCS(=O)(=O)CC5)c(F)c4)c3n2)ccc1C(=O)N1CCOCC1
(II) CNC(=O)c1ccc(-c2cccc3ncc(-c4cc(OC)c(OC)c(OC)c4)nc23)cc1
(III) Cc1cc(-c2cnc3cccc(-c4cc(F)c(CN5CCOCC5)c(F)c4)c3n2)cnc1C(=O)N(C)CCN(C)C
In this exercise, place the 3 compounds in ascending sequence of their recorded pIC50. Please list the labels according to the requested order.
III, II, I

(1) CN1CCN(c2ccc(-c3cnc4cccc(-c5ccc(CC(=O)N6CCOCC6)c(F)c5)c4n3)cc2)CC1
(2) Cc1cc(-c2cccc3ncc(-c4ccc(N5CCOCC5)cc4)nc23)ccc1C(=O)N1CCOCC1
(3) Cc1cc(-c2cnc3cccc(-c4cc(F)c(CN5CCS(=O)(=O)CC5)c(F)c4)c3n2)ccc1C(=O)N1CCC(N(C)C)CC1
(4) CCS(=O)(=O)c1ccc(-c2cccc3ncc(-c4cccc(NS(C)(=O)=O)c4)nc23)cc1
In this exercise, place the 4 compounds in ascending sequence of their recorded pIC50. Please list the labels according to the requested order.
4, 3, 2, 1

(I) CN1CCN(C(=O)c2cccc(-c3cnc4cccc(-c5cc(F)c(CN6CCOCC6)c(F)c5)c4n3)c2)CC1
(II) Cc1cc(-c2cnc3cccc(-c4ccc(CN5CCS(=O)(=O)CC5)c(Cl)c4)c3n2)ccc1C(=O)N1CCOCC1
(III) CCOc1ccc(-c2cnc3cccc(-c4ccc(NS(C)(=O)=O)cc4)c3n2)cc1OCC
(IV) Fc1cc(-c2cccc3ncc(-c4cnn(C5CNC5)c4)nc23)cc(F)c1CN1CCOCC1
Arrange these compounds by their pIC50, starting with the largest number. Please list the labels according to the requested order.
IV, II, I, III

----------
- Tested On: GST-JAK2(808-1132) (Homo sapiens)
- Construct: GST-JAK2(808-1132); purchased Invitrogen (Carlsbad, USA) #4288
- Procedure Summary: EPK JAK-family kinases profiling assay (Caliper mobility shift), JAK2
- Format: biochemical
- Experimental Parameters: ATP 20 μM, 1.8 nM kinase
Assay Metric: IC50 (nM)

COc1cc(-c2cnc3cccc(-c4cc(F)c(CN5CCOCC5)c(F)c4)c3n2)ccc1OCCCN1CCOCC1 5.5

(P) CCN1CCN(C(=O)c2ccc(-c3cnc4cccc(-c5ccc(C(C)(C)N6CCS(=O)(=O)CC6)c(C)c5)c4n3)cc2C)CC1
(Q) O=C(Cc1ccc(-c2cccc3ncc(-c4ccc(OCCCN5CCOCC5)cc4)nc23)cc1)N1CCOCC1
(R) Cc1cc(-c2cnc3cccc(-c4ccc(CC(=O)N5CCS(=O)(=O)CC5)c(F)c4)c3n2)ccc1CN1CCOCC1
(S) Cc1cc(-c2cccc3ncc(-c4cnn(CCCN5CCOCC5)c4)nc23)ccc1C(=O)N1CCOCC1
In this exercise, place the 4 compounds in ascending sequence of their recorded IC50. Please list the labels according to the requested order.
R, S, P, Q

----------
- Tested On: GST-JAK1(866-1154) (Homo sapiens)
- Sequence (P23458 866-1154): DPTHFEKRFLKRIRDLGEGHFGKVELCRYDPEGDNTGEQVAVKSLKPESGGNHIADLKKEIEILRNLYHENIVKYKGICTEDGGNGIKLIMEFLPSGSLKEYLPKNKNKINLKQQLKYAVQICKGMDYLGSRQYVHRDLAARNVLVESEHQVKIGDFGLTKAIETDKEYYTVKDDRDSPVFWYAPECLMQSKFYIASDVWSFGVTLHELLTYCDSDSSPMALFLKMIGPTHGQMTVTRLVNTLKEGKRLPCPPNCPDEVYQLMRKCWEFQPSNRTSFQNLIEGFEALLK
Assay Metric: IC50 (nM)

// solved cases for IC50 follow
Cc1cc(-c2cccc3ncc(-c4cnn(C5CCNCC5)c4)nc23)ccc1C(=O)N1CCOCC1 1400
COc1cc(-c2cnc3cccc(-c4ccc(C(=O)N5CCOCC5)c(F)c4)c3n2)ccc1OCCN1CCOCC1 94
COc1ccc(-c2cnc3cccc(-c4cc(F)c(CN5CCS(=O)(=O)CC5)c(F)c4)c3n2)cc1N1CCN(C)CC1 77

(I) Cc1cc(-c2cnc3cccc(-c4cc(F)c(CN5CCS(=O)(=O)CC5)c(F)c4)c3n2)ccc1C(=O)N1CCOCC1
(II) Cc1cc(-c2cnc3cccc(-c4ccc(CN5CCOCC5)c(F)c4)c3n2)ccc1C(=O)N(C)C
(III) CS(=O)(=O)c1ccc(-c2cccc3ncc(-c4cnn(C5CCNCC5)c4)nc23)cc1F
In this exercise, place the 3 molecules in ascending sequence of their recorded IC50. Please list the labels according to the requested order.
I, II, III

----------
Consider molecules characterized by their IC50 with GST-JAK3(811-1124) (Homo sapiens, UniProt P52333).
Report the value in µM with no unit label.

CS(=O)(=O)Nc1cccc(-c2cnc3cccc(-c4ccc(CC(=O)N5CCOCC5)cc4)c3n2)c1 4.2
COc1cc(-c2cnc3cccc(-c4ccc(CC(=O)N5CCN(C)CC5)cc4)c3n2)cc(OC)c1OC 4.3

Annotate the molecule CNS(=O)(=O)c1ccc(-c2cccc3ncc(-c4cc(OC)c(OC)c(OC)c4)nc23)cc1 with its measured IC50.
4.5

Annotate the molecule Cc1cc(-c2cnc3cccc(-c4ccc(CN5CCS(=O)(=O)CC5)cc4)c3n2)ccc1C(=O)N1CCN(C)CC1 with its measured IC50.
0.627

Annotate the molecule CN1CCN(c2ccc(-c3cnc4cccc(-c5cc(F)c(CN6CCOCC6)c(F)c5)c4n3)cc2)CC1 with its measured IC50.
3.5
